Where these numbers come from: ChEMBL document CHEMBL1201862

tested on: OVCAR-5; test: NCI tumour cell line growth inhibition, 48 h
Where a name gives a salt, the structure may show the parent alone. Calls of active or inactive are those of the source. Cut-off read from the data, not from the text of the source: active = GI50 up to about 1.1 µM and inactive = higher.
Attribute measured: GI50

Challenge: // fetch OVCAR-5 GI50 for `C/C(=N\NC(N)=S)c1sc(-n2nc(-c3ccccc3)cc2-c2ccccc2)nc1C`
Response given: > 100 µM (inactive)

Challenge: # get_value(readout= GI50, system= OVCAR-5) for `Cc1ccccc1NC(=O)Cc1csc(N/N=C2\C(=O)Nc3ccccc32)n1`
Response given: 41.7 µM (inactive)

Challenge: Lab note: need GI50 with OVCAR-5 for entry `COc1ccc(/C(C)=N/OC(=O)c2c(-c3ccccc3Cl)noc2C)cc1CN1CCOCC1` , please look it up.
Response given: 12.8 µM (inactive)

Challenge: Kindly state the measured GI50 obtained for CC(C)CC1NC(=O)CCC(NC(=O)C(Cc2ccc(O)cc2)NC(=O)OCc2ccccc2)C(=O)NC(Cc2ccccc2)C(=O)NC(Cc2ccccc2)NC1=O (stereo not given) with OVCAR-5.
Response given: > 100 µM (inactive)

Challenge: Identify the measured GI50 of COC(=O)[C@@]12C(=O)C(C)C(=O)[C@]1(C)C(C)=C[C@H]1[C@]3(C=O)CC[C@H](OC(C)=O)C(C)(C)[C@H]3CC[C@@]12C (stereo not given in full) for OVCAR-5.
Response given: > 100 µM (inactive)

Challenge: Checklist item: GI50 tested on OVCAR-5, entry CN1CCC(CN2c3ccccc3Sc3ccccc32)C1 (stereo not given) [METHDILAZINE HYDROCHLORIDE] , value?
Response given: 16.7 µM (inactive)

Challenge: Which measured GI50 belongs to `O=C(CCCNc1nc(-c2ccccc2)cs1)c1cccs1` , tested on OVCAR-5?
Response given: > 100 µM (inactive)

Challenge: Test system OVCAR-5; read-out GI50; what value for `C[C@H]1CC[C@@]2(NC1)O[C@H]1C[C@H]3[C@@H]4CC[C@H]5C[C@@H](O)CC[C@]5(C)[C@H]4CC[C@]3(C)[C@H]1[C@@H]2C` ?
Response given: > 100 µM (inactive)

Challenge: OVCAR-5 / GI50 / `O=C(/C=C/c1cc(F)ccc1F)OCCc1ccccc1` : value?
Response given: > 100 µM (inactive)

Challenge: Find GI50 (OVCAR-5) for the entry O=c1[nH]c(=O)n(C2OC3COC2C3O)cc1F (stereo not given)
Response given: > 100 µM (inactive)

* * *

I'd be grateful if you could share measured GI50 for these entries.
test system: OVCAR-5; test: NCI tumour cell line growth inhibition, 48 h
Calls of active or inactive are those of the source. No stated cut-off is given here; in the data, active = GI50 up to about 1.1 µM and inactive = higher.

Challenge: Quick check: GI50 of `c1csc(-c2ccc(-c3ccc(-c4cccs4)s3)s2)c1` ?
Response given: > 100 µM (inactive)

Challenge: Recorded GI50 for O=C(CC1(O)C(=O)Nc2ccccc21)c1ccc(O)cc1O (centres undefined) , please?
Response given: > 100 µM (inactive)

Challenge: Given the entry `CCOC(=O)NC(Nc1ncn(C(NC(=O)OCC)(C(F)(F)F)C(F)(F)F)n1)(C(F)(F)F)C(F)(F)F` , report its measured GI50.
Response given: > 100 µM (inactive)

Challenge: I have this compound here, `O=C(O)c1ccccc1/C=N\N=C1NCCN1` , and I need its recorded GI50.
Response given: > 100 µM (inactive)

Challenge: What value of measured GI50 is listed for `CCCCC(=O)Nc1ccc2c(C)cc(-c3ccc(-c4cc(-c5ccc(C)cc5)cc(-c5ccc(-c6cc(C)c7ccc(NC(=O)CCCC)nc7n6)cc5)n4)cc3)nc2n1` ?
Response given: > 100 µM (inactive)

Challenge: Form field: reported GI50 of `Cc1nc(C(N)=S)sc1C(=O)CC(=O)C(=O)Nc1c(C(C)C)cccc1C(C)C`
Response given: > 100 µM (inactive)

Challenge: Field request: GI50 | item: `COc1cc(/C=C2\[C@H]3c4c(c(OC)c(C)c(OC)c4OC)CC(C(=O)N2Cc2ccccc2)N3C)c(OC)c(C)c1OC`
Response given: 20.6 µM (inactive)

Challenge: Entry `O=c1[nH]c(Nc2nc3ccccc3[nH]2)nc(O)c1-c1ccccc1` : reported GI50 = ?
Response given: > 100 µM (inactive)

Challenge: Param item = `N#C[C@H](c1nc2ccccc2s1)c1nc2ccccc2nc1Cl` ; retrieve measured GI50.
Response given: 17.9 µM (inactive)

* * *

test system: UACC-62; assay: NCI tumour cell line growth inhibition, 48 h
Active and inactive are the calls of the source. No stated cut-off is given here; in the data, active = GI50 up to about 1.1 µM and inactive = higher.
Attribute measured: GI50

Challenge: Consider the compound shown here: CCOC(OC1=CCCC1)C(C)[Se]c1ccccc1 (stereo unspecified) What is its recorded GI50?
Response given: 23.9 µM (inactive)

Challenge: Can you share its GI50? I mean this compound: `CC(C)C(=S)N(C)O`
Response given: 10.1 µM (inactive)

Challenge: State the recorded GI50 for this entry: CC1(C(=O)O)CCC(C(=O)O)C(C)(C)O1 (stereo unspecified)
Response given: > 100 µM (inactive)

Challenge: Consider the compound `C/C=C1/CN2CCc3c([nH]c4ccccc34)[C@@H]2C[C@@H]1Cc1nccc2c1[nH]c1cc(O)ccc12` and give its measured GI50.
Response given: 2.07 µM (inactive)

Challenge: Suppose we examine the compound `CN[C@@H](C)[C@H](N)c1ccccc1` ; what GI50 value has been reported?
Response given: > 100 µM (inactive)

Challenge: Report GI50 for CC12CCC(CC1(Cl)Cl)C2 (stereo unspecified) please.
Response given: > 100 µM (inactive)

Challenge: What measured GI50 goes with `COc1cccc(-c2cc(O)c3cc(N)ccc3n2)c1` ?
Response given: 2.92 µM (inactive)

Challenge: Fill in the blank: the reported GI50 of `O=C(O)CCSCc1ccc(I)cc1` is ____.
Response given: > 100 µM (inactive)

Challenge: Could you tell me which GI50 is on file for `CCn1c(=O)c2ccccc2n2c(=O)c3cc4ccccc4cc3nc12` ?
Response given: > 100 µM (inactive)

Challenge: # get_value(readout='GI50', item= `O=C(/C=C/c1cc(F)ccc1F)OCCc1ccccc1` )
Response given: 86.5 µM (inactive)

Challenge: GI50 lookup needed for COC1CC2C3/C(=N/Nc4ccc([N+](=O)[O-])cc4[N+](=O)[O-])CCC2(C)C3C1 (stereo unspecified) , thanks.
Response given: > 10 µM (inactive)

* * *

test system: MOLT-4; assay: NCI tumour cell line growth inhibition, 48 h
The source made the active and inactive calls. Cut-off read from the data, not from the text of the source: active = GI50 up to about 1.1 µM and inactive = higher.
Respond using exactly one of the listed classes: YES (active), NO (inactive)

Challenge: Write down the call the test reported for this compound. Item: `CC(C)N1CCC2(CC1)NNc1ncccc1-n1cccc12`
Response given: NO

Challenge: Per the records of this test, what outcome belongs to `O=C(CN1C(=O)CC(c2ccccc2)(c2ccccc2)C1=O)N1CCN(CCO)CC1` ?
Response given: NO

Challenge: Please share the test call associated with `COc1ccc(/C=N/NC(=O)C2=C(N)N(c3ccccc3)C(=C(C#N)C#N)S2)cc1` .
Response given: NO

Challenge: Test call, this compound: CC1CCC(=O)C(C(=O)CC2CC(=O)N(C)C(=O)C2)C1 (stereo unspecified)
Response given: NO

Challenge: Dear colleague, could you share the recorded outcome for `Oc1cc(/C=C/c2ccccc2)nc2cc3c(cc12)OCO3` when you have a moment?
Response given: NO

Challenge: Called result for `Cc1ccc(S(=O)(=O)ON2C(=O)c3cccc4cc([N+](=O)[O-])cc(c34)C2=O)cc1`
Response given: NO

Challenge: Called result for `O=c1ccc2nc3ccc(O)cc3oc-2c1`
Response given: NO

Challenge: Just curious, what result did `CCOc1cccc2c1N[S@@](=O)S2` get here?
Response given: NO

Challenge: GET /call?item= `Cc1ncc([N+](=O)[O-])n1CCNCCCCn1ccnc1[N+](=O)[O-]` returns the recorded outcome of this test.
Response given: NO

Challenge: What did the test return for COC(=O)C(=O)C(C(=O)C(N)=O)c1nc2ccc(C(=O)c3ccccc3)cc2nc1O (stereo unspecified) ?
Response given: NO

Challenge: Answer briefly: the call reported for `Cc1cc(=O)c2cc(/N=C/c3ccc([N+](=O)[O-])o3)ccc2o1` in this assay.
Response given: NO

Challenge: Hi, sorry to bother you, what did the test record for `O=S1(=O)COc2ccccc2-c2ncncc21` ?
Response given: NO

Challenge: How was O=C(O)C1C2c3ccccc3C(c3ccccc32)C1C(=O)NCC1CC1 (stereo unspecified) classified in this test?
Response given: NO

Challenge: Please indicate how the test categorized `Cc1ccc(-c2cc(N)n(-c3nc4c(c(=O)n(C)c(=O)n4C)n3C)n2)cc1` .
Response given: NO

Challenge: Just curious, what result did CCOC(=O)C(Cl)(NC(=O)c1ccc(F)cc1)C(F)(F)F (stereo unspecified) get here?
Response given: NO

Challenge: Hello, I am checking results. What call was entered for Cc1cc(C)c2c(c1)CC1(Cc3cc(C)c(C)cc3C1=O)C2=O (stereo unspecified) ?
Response given: NO

Challenge: Could you kindly confirm the outcome this assay logged for COC(=S)OC1CC(n2cnc3c(=O)[nH]cnc32)OC1CO[Si](C)(C)C(C)(C)C (stereo unspecified) ?
Response given: NO

Challenge: Name the outcome recorded for COC(=O)[C@@]12C(=O)C(C)C(=O)[C@]1(C)C(C)=C[C@H]1[C@]3(C=O)CC[C@H](OC(C)=O)C(C)(C)[C@H]3CC[C@@]12C (stereo partly specified) in the assay.
Response given: NO

Challenge: Field: outcome | Entry: `Cc1cc(N)c2ccccc2[n+]1CCCCCCCCCCNc1cc(C)[n+](CCCCCCCCCC[n+]2c(C)cc(N)c3ccccc32)c2ccccc12`
Response given: YES

Challenge: // return assay outcome for `CCCCN(c1ccccc1)c1ncnc2c1cnn2C`
Response given: NO

Challenge: Could you please tell me the result logged for `C/C(=N\NC(N)=S)c1sc(-n2nc(-c3ccccc3)cc2-c2ccccc2)nc1C` in this assay?
Response given: NO
